# System: Murine T-cell line
# Assay Notes: Immunostimulant activity in Balb/c mouse T cells assessed as induction of ConA-induced cell proliferation at 100 uM after 48 hrs by MTT assay relative to control
Decision: Activity >= 30% yields 1.0, all other cases yield 0.0.

Problem: Is Activity at least 30%? Consider Cc1cc(OCc2ccccc2)c(C)c2c1CC[C@H]1[C@H](C)C(=O)O[C@@H]21
Result: 0.0

---
Problem: Is Activity at least 30%? Consider Cc1cc(OC(=O)c2ccccc2)c(C)c2c1CC[C@H]1[C@H](C)C(=O)O[C@@H]21
Result: 0.0

Problem: Is Activity at least 30%? Consider Cc1cc(O)c(C)c2c1CC[C@H]1[C@H](C)C(=O)O[C@@H]21
Result: 1.0

Problem: Is Activity at least 30%? Consider CCOc1cc(C)c2c(c1C)[C@@H]1OC(=O)[C@@H](C)[C@@H]1CC2
Result: 0.0

Problem: Is Activity at least 30%? Consider CCCOc1cc(C)c2c(c1C)[C@@H]1OC(=O)[C@@H](C)[C@@H]1CC2
Result: 1.0

Problem: Is Activity at least 30%? Consider CCCCC(=O)Oc1cc(C)c2c(c1C)[C@@H]1OC(=O)[C@@H](C)[C@@H]1CC2
Result: 0.0
